Reported NanoBRET Abs IC50 values follow for various binders
# target desc: T1, B-cat-Halo (UniProt P35222 1-781)
# T1 sequence (looked up): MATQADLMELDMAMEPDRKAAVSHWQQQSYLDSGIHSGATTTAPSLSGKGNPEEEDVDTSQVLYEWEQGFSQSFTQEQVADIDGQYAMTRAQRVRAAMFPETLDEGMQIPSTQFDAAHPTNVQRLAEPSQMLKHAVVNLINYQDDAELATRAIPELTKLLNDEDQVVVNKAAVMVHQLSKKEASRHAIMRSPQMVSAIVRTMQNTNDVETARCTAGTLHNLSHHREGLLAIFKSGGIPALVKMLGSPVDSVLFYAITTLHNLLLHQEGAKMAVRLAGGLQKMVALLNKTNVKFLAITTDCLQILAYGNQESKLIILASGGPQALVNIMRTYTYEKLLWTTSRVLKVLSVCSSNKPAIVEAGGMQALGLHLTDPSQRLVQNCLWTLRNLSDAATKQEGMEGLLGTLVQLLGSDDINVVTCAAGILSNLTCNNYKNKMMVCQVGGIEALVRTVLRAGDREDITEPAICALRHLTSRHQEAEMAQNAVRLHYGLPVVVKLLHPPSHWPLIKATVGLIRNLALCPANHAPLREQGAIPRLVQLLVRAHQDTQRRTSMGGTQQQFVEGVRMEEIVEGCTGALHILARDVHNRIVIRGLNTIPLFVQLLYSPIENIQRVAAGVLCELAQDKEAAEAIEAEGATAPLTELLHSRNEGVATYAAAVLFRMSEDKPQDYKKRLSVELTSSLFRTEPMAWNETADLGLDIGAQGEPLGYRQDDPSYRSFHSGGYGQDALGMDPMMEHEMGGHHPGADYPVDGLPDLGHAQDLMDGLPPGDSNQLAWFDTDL
# method notes: cell-based or functional assay
Starred links: 1 amine or outer side, 2 acyl side, 3 side chain; linkers in the order of their positions; H or OH if unused. Positions of bridges follow the written chain, without caps; N, C: chain ends. Non-standard residues stand in square brackets, D forms with d. Primed or numbered codes have the meaning given here. (4CF3PhAc)GA = (S)-2-amino-3-(N-(carboxymethyl)-2-(4-(trifluoromethyl)phenyl)acetamido)propanoic acid, O=C(Cc1ccc(C(F)(F)F)cc1)N(CC(=O)[*:3])C[C@H](N[*:1])C(=O)[*:2]; (PfPhAc)GA = (S)-2-amino-3-(N-(carboxymethyl)-2-(perfluorophenyl)acetamido)propanoic acid, O=C(Cc1c(F)c(F)c(F)c(F)c1F)N(CC(=O)[*:3])C[C@H](N[*:1])C(=O)[*:2]; (NdiMeButC)GAbu = (S)-2-amino-4-(N-(carboxymethyl)-4-(dimethylamino)butanamido)butanoic acid, CN(C)CCCC(=O)N(CC[C@H](N[*:1])C(=O)[*:2])CC(=O)[*:3]; PyrS2″ = (S)-3-amino-1-((pent-4-en-1-yloxy)carbonyl)pyrrolidine-3-carboxylic acid (stapling residue), C=CCCCOC(=O)N1CC[C@@](N[*:1])(C(=O)[*:2])C1; (MorphAc)GA = (S)-2-amino-3-(N-(carboxymethyl)-2-morpholinoacetamido)propanoic acid, O=C(CN1CCOCC1)N(CC(=O)[*:3])C[C@H](N[*:1])C(=O)[*:2]; PyrS2 = (S)-3-amino-1-((pent-4-en-1-yloxy)carbonyl)pyrrolidine-3-carboxylic acid, C=CCCCOC(=O)N1CC[C@@](N[*:1])(C(=O)[*:2])C1; B5(22) = 2-amino-2-(pent-4-en-1-yl)hept-6-enoic acid (two alkene side chains), C=CCCCC(CCCC=C)(N[*:1])C(=O)[*:2]; B5(3) = 2,2-bis(4-pentenyl)glycine (stitching residue), C=CCCCC(CCCC=C)(N[*:1])C(=O)[*:2]; Phe(3-COOH) = N[C@@H](Cc1cccc(C(=O)O)c1)C(=O)O; 2F3MeF = Cc1cccc(C[C@H](N[*:1])C(=O)[*:2])c1F; Phe(3-Cl) = N[C@@H](Cc1cccc(Cl)c1)C(=O)O; Bta = N[C@@H](Cc1csc2ccccc12)C(=O)O; αAllylPro = C=CC[C@@]1(C(=O)O)CCCN1; tBuAla = CC(C)(C)C[C@H](N)C(=O)O; 3Thi = N[C@@H](Cc1ccsc1)C(=O)O; PyrS2(4) = not defined here
Numeric only. Scale: µM

Consider the reported NanoBRET Abs IC50 for these binders:
Ac-[αAllylPro]D[tBuAla][B5(22)]D[(PfPhAc)GA]AAFL[PyrS2][3Thi][Bta]Q-NH2 (staple 1-4, 4-11) [I-2241]	17.7
Ac-[αAllylPro]D[tBuAla][B5(3)]D[Phe(3-COOH)]QAFV[PyrS2(4)][3Thi][Phe(3-Cl)]A-NH2 (staple 1-4, 4-11; reading uncertain) [I-2225]	7.8
Ac-[αAllylPro]D[tBuAla][B5(22)]D[(NdiMeButC)GAbu]AAFL[PyrS2][3Thi][Bta]Q-NH2 (staple 1-4, 4-11) [I-2243]	25.2
Ac-[αAllylPro]D[tBuAla][B5(22)]D[(MorphAc)GA]AAFL[PyrS2][3Thi][Bta]Q-NH2 (staple 1-4, 4-11) [I-2239]	31.9
Ac-[αAllylPro]D[tBuAla][B5(22)]D[(4CF3PhAc)GA]AAFL[PyrS2][3Thi][Bta]Q-NH2 (staple 1-4, 4-11) [I-2236]	15.3

Kindly review the next binder as well.
Please look up its NanoBRET Abs IC50: Ac-[αAllylPro]D[tBuAla][B5(3)]D[Phe(3-COOH)]QAFL[PyrS2″][2F3MeF][Phe(3-Cl)]A-NH2 (staple 1-4, 4-11) [I-2227]
6.3

Entry source: patent US20240116985A1
